Assay: self-splicing fitness, log relative to wild type (ln ratio); higher = more splicing; Tetrahymena group I intron in knt gene, E. coli kanamycin selection, DiMSum; sequences stand for … in CUCUCU…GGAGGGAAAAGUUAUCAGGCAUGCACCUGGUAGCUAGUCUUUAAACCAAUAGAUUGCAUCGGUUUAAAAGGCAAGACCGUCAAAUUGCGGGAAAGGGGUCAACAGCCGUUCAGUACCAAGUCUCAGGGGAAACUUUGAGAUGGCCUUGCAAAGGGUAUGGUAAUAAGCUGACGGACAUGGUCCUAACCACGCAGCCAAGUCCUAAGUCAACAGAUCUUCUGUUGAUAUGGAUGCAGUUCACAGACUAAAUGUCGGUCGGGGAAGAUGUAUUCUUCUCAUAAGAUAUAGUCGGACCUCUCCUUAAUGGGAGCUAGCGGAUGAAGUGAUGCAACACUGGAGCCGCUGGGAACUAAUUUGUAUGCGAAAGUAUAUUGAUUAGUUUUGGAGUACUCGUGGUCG;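 further: selection with 25 µg/mL kanamycin versus none on LB agar overnight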
Conditions: 30 °C
quantity.name: self-splicing fitness (ln)
# output: bare number, no unit

Please review the entries below; each comes with its answer.
{"columns": ["construct.sequence", "quantity.name", "value.observed"],
 "data": [
  ["AGCAAGCAAUAUUACGUUAA", "self-splicing fitness (ln)", -3.3],
  ["AAUUAGCAAUAUUACGCAGU", "self-splicing fitness (ln)", -2.78],
  ["GAGGAGCAAUAUUACGAUCG", "self-splicing fitness (ln)", -2.15]
]}

Continue with the sequence presented below.
Q. Query: self-splicing fitness (ln); subject: GCCAAGCAAUAUUACGUGCU
A. -3.04

FYI, the data here is from the supplement of paper PMC7877785.
